experiment: recombinant barcode read abundance after kanamycin selection (control-corrected) (log10(CPM+1)); higher = more efficient recombination; sequences stand for … in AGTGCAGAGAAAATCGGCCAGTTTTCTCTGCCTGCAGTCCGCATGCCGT…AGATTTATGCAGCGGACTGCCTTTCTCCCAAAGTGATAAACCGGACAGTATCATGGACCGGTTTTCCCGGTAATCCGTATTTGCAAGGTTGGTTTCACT; site = the 11-nt target;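 also: IS621 recombinase and bridge RNA in Escherichia coli cells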
reported property: recombinant barcode read abundance (log10)

sequence_input="CTAACCTCTTGGGTTCTAACCTGTTGCTT (site CTAACCTCTGA)" endpoint_value=0.178
sequence_input="TGAAATCCTTGGGTTCTAACCTGTTGCCT (site TGAAATCCTAG)" endpoint_value=0.304
sequence_input="ACATAAGCTTGGGTTCTAACCTGTTGCTA (site ACATAAGCTTA)" endpoint_value=1.11
sequence_input="AGGGCACCTTGGGTTCTAACCTGTTGCCA (site ATGGCACCTAG)" endpoint_value=0.186
sequence_input="TCTTCCACTTGGGTTCTAACCTGTTGCCT (site TCTTCCACTAG)" endpoint_value=0.385
sequence_input="GAGTTGCCTTGGGTTCTAACCTGTTGCGG (site GAGTCGCCTCC)" endpoint_value=0.25
sequence_input="TCACATTCTTGGGTTCTAACCTGTTGCCT (site TCACATTCTAG)" endpoint_value=0.31
sequence_input="AGGGCACCTTGGGTTCTAACCTGTTGCCA (site AGGGCACCTTG)" endpoint_value=1.26
sequence_input="AGGAGCGCTTGGGTTCTAACCTGTTGCCT (site AGCAGCTCTAG)" endpoint_value=0.105
sequence_input="CACTTCCCTTGGGTTCTAACCTGTTGCCT (site CACTTCCCTAG)" endpoint_value=0.924
